# TARGET OF ASSAY: Paired box protein Pax-8 (Homo sapiens)
# Sequence (Q06710 whole entry): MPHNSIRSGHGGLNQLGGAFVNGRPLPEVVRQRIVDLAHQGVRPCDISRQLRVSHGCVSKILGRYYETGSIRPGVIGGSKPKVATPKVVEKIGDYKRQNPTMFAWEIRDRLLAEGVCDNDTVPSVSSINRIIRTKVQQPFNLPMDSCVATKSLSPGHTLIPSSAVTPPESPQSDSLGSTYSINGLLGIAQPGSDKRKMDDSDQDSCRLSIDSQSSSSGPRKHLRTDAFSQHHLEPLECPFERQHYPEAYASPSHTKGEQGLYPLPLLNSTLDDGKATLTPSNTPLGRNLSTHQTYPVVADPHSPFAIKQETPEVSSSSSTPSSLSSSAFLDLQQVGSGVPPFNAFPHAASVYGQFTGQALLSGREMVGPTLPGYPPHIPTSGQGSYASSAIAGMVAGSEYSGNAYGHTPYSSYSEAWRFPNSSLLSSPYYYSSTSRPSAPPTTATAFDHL
# TEST DESCRIPTION: inhibitors of PAX8-driven TPO luciferase reporter, dose response, RMG-I cells, cherry-pick (AID 687027);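 also: luciferase reporter driven by Pax8 target thyroperoxidase promoter measured by SteadyGlo luminescence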
# Type: functional, cell-based
The source made the active and inactive calls.

{"columns": ["COMPOUND STRING", "AC50"],
 "data": [
  ["Cc1ccc(-c2cn3cc(C)ccc3n2)cc1", "3.46 µM (active)"],
  ["COc1ccc(S(=O)(=O)N(C)C[C@H]2Oc3cc(C#CC4CCCC4)ccc3S(=O)(=O)N([C@@H](C)CO)C[C@@H]2C)cc1", "6.49 µM (active)"],
  ["C[C@H](CO)N1C[C@H](C)[C@@H](CN(C)Cc2ccc(C(F)(F)F)cc2)OCCCC[C@H](C)Oc2ccc(NC(=O)Cc3ccccc3)cc2C1=O", "9.66 µM (active)"],
  ["C[C@@H]1CN([C@H](C)CO)C(=O)c2cc(NC(=O)Nc3ccc(C(F)(F)F)cc3)ccc2O[C@@H](C)CCCCO[C@H]1CN(C)Cc1ccc(Cl)c(Cl)c1", "6.74 µM (active)"]
]}

---

Catalogue of IC50 values
# TARGET OF ASSAY: Prothrombin (Homo sapiens)
# TEST DESCRIPTION: Thrombin 1536 HTS Dose Response Confirmation. [Related pubchem assays: 1046 (Thrombin 1536 HTS; hits were confirmed in this assay)]
# Format: functional
The source made the active and inactive calls.
QUANTITY MEASURED: IC50

{"columns": ["COMPOUND", "RESULT"],
 "data": [
  ["O=C(COC(=O)CCc1ccccc1)Nc1ncc(Cl)cc1Cl", "8.03 µM (active)"],
  ["CCOC(=O)c1cnn(-c2ncnc3sc4c(c23)CCC4)c1N", "> 50 µM (not active)"],
  ["CC(C(=O)NCc1ccccn1)N1C(=O)c2ccccc2C1=O (stereo unspecified)", "> 50 µM (not active)"],
  ["COc1ccc(CNc2nc(-c3cccnc3)nn2C(=O)CC(C)C)cc1", "0.336 µM (active)"],
  ["Cc1ccccc1-n1cnc2cc(NCc3cccs3)ccc21", "> 50 µM (not active)"],
  ["C=CCNC(=O)C(C#N)c1nc2ccccc2nc1N1CCN(Cc2ccccc2)CC1 (stereo unspecified)", "> 50 µM (inconclusive)"]
]}

---

# TARGET OF ASSAY: RNA-binding protein pos-1 (Caenorhabditis elegans, UniProt G5EF15)
# Sequence (G5EF15 whole entry, the tested form may be a part): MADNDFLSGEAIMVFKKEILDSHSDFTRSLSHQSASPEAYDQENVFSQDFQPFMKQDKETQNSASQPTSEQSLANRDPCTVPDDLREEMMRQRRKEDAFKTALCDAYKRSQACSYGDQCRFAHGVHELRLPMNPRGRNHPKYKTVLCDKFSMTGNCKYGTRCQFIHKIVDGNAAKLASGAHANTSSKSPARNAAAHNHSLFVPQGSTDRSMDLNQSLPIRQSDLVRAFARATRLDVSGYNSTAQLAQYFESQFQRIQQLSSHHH
# TEST DESCRIPTION: inhibitors of POS-1/mex-3 RNA binding, dose response, biochemical, fluorescence polarization (AID 1964);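 also: purified POS-1 fused to maltose binding protein made in E. coli; potency of compounds blocking POS-1 binding to fluorescent RNA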
Active and inactive are the calls of the source.
Catalogue of EC50 values
QUANTITY MEASURED: EC50

{"columns": ["MOLECULE", "QUANTITY MEASURED", "RESULT"],
 "data": [
  ["O=C(O)c1ccc(-n2c(-c3cc(-c4ccco4)[nH]n3)n[nH]c2=S)cc1", "EC50", "4.19 µM (inconclusive)"],
  ["Cc1[nH][nH]c(=O)c1C(c1cc([N+](=O)[O-])ccc1O)c1c(C)[nH][nH]c1=O", "EC50", "64.5 µM (active)"],
  ["Cc1cccc(S(=O)(=O)C(C#N)c2nc3ccccc3nc2N2CCOCC2)c1 (centres undefined)", "EC50", "163 µM (active)"],
  ["NS(=O)(=O)c1ccc(-c2cccc(/C=C3\\SC(=O)NC3=O)c2)cc1", "EC50", "13 µM (active)"],
  ["CN1C(=O)C(=Cc2ccc(N3CCCCC3)o2)C(=O)N(C)C1=S", "EC50", "> 300 µM (inconclusive)"],
  ["CCOC(=O)N1CCN(c2nc3ccccc3nc2C(C#N)S(=O)(=O)c2ccc(C)cc2)CC1 (centres undefined)", "EC50", "> 300 µM (inconclusive)"],
  ["COc1ccc(/C=C/C(O)=C2\\C(=O)NC(=O)N(CCC3=CCCCC3)C2=O)cc1OC", "EC50", "6.09 µM (inconclusive)"],
  ["O=c1[nH]nc(CNc2ccc(O)cc2)c2ccccc12", "EC50", "11.8 µM (active)"],
  ["COc1ccc(CCNC(=O)c2cc3c(=O)n4cccc(C)c4nc3n(CCCN3CCOCC3)c2=N)cc1", "EC50", "66.4 µM (active)"]
]}

---

# TARGET OF ASSAY: Fatty acid synthase (Homo sapiens)
# Sequence (P49327 whole entry, the tested form may be a part): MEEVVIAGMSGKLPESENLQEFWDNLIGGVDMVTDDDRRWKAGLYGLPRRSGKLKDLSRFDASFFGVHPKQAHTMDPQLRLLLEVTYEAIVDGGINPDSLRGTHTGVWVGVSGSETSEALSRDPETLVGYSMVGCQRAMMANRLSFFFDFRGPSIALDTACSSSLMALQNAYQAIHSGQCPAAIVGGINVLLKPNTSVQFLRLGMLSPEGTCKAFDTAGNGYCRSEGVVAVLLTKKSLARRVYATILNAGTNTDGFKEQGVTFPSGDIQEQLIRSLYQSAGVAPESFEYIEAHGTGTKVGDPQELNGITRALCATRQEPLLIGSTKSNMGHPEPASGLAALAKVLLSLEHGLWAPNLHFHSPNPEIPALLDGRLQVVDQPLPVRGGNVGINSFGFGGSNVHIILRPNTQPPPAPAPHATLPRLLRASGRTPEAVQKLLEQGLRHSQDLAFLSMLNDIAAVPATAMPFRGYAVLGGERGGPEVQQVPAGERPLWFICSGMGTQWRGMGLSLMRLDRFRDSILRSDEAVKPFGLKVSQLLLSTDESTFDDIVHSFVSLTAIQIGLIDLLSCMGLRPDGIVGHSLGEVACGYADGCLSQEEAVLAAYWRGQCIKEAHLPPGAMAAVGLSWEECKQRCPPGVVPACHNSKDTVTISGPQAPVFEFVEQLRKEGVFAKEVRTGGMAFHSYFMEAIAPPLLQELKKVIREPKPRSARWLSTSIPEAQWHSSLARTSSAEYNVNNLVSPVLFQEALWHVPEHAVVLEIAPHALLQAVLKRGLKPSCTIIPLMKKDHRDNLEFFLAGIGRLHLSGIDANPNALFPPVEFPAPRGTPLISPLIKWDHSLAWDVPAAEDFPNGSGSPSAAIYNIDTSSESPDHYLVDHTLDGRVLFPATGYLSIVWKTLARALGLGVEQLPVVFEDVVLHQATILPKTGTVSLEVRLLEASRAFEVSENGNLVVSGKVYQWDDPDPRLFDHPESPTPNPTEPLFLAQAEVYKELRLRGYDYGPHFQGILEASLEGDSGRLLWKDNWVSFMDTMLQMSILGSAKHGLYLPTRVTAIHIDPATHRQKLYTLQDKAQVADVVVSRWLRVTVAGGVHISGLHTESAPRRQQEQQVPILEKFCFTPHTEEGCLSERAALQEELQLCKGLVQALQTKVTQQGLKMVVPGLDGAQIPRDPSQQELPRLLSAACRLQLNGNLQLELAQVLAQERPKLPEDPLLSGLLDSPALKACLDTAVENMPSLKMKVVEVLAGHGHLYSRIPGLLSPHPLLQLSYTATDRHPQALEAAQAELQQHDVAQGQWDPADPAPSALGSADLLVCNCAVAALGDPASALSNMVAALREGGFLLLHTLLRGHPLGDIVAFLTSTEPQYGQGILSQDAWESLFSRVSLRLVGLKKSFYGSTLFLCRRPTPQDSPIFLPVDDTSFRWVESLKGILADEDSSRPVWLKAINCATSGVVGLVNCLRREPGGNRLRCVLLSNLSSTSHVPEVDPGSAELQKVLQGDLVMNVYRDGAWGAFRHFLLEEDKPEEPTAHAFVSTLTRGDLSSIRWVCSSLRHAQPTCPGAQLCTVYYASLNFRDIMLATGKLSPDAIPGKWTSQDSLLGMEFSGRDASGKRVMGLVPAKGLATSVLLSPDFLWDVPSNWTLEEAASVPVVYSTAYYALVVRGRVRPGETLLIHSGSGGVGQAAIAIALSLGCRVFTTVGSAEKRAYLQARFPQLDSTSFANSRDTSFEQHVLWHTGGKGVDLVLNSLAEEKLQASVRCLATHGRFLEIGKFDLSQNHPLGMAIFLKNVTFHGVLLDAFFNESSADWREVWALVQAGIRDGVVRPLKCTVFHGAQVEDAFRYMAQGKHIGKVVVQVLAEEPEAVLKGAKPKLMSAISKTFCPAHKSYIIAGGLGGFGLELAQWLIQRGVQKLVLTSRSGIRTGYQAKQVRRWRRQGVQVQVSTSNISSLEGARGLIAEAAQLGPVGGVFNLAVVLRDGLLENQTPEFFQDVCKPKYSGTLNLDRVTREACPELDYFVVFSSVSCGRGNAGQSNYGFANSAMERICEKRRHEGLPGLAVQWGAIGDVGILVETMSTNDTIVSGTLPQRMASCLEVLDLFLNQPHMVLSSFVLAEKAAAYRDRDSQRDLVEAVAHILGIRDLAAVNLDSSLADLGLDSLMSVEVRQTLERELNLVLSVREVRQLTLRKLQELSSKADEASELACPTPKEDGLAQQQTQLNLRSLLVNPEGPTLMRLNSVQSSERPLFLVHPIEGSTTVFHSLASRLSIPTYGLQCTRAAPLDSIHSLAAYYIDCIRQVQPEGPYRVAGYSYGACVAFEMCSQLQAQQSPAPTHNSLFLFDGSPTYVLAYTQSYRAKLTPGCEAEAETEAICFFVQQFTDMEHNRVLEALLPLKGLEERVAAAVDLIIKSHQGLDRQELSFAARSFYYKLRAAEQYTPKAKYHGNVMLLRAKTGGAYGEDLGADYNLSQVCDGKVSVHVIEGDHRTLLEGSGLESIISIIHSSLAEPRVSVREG
# TEST DESCRIPTION: FAS thioesterase domain inhibitors, dose response, biochemical, endpoint fluorescence intensity, uHTS hits (AID 624327);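 also: fluorescence from hydrolysis of an O-methyl fluorescein acyl ester substrate by the enzyme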
# Type: functional
Activity calls are given as the source filed them.
Outcome codes: True (active), False (inactive)

{"columns": ["COMPOUND", "GROUP LABEL"],
 "data": [
  ["O=[N+]([O-])c1cc(-c2csc(NCCc3nc4cc(C(F)(F)F)ccc4n3CCCO)n2)ccc1Cl", "True"],
  ["C[C@H](CO)N1C[C@H](C)[C@@H](CN(C)C(=O)Nc2ccccc2)Oc2c(NC(=O)Nc3ccc(C(F)(F)F)cc3)cccc2C1=O", "True"],
  ["COc1ccc(-c2csc3nc(-c4ccccc4F)oc(=O)c23)cc1", "True"],
  ["O=[N+]([O-])c1cc(-c2csc(NCCc3nc4cc(Cl)c(Cl)cc4n3CCCO)n2)ccc1Cl", "True"],
  ["O=C(Nc1ccccc1C(=O)Nc1nnc(C(F)(F)F)s1)c1ccccc1", "False"],
  ["Cc1cc(S(=O)(=O)c2ccc(Cl)cc2)nc(S(=O)(=O)c2ccc(Cl)cc2)c1C#N", "True"],
  ["CC(C)(C)N1C(=O)[C@H]2[C@@H](c3ccc(Br)cc3)N3C(=O)N(c4ccc(Br)cc4)C(=O)[C@@]3(Cc3ccccc3)[C@H]2C1=O", "True"],
  ["S=C(NCCc1ccccc1)N1Cc2cc(Br)ccc2-n2nncc2C1", "True"],
  ["CC(Cc1ccccc1)NC(=O)c1cc([N+](=O)[O-])ccc1Cl (centres undefined)", "True"]
]}

---

# TARGET OF ASSAY: Protein RecA (Mycobacterium tuberculosis, UniProt P9WHJ3)
# TEST DESCRIPTION: Fluorescence Cell-Free Homogeneous Dose Retest to Identify Inhibitors of RecA-Intein Splicing Activity. [Related pubchem assays (depositor defined):AID2097, AID2223, AID489010, AID492950]
# Assay type: functional
The source made the active and inactive calls.
Catalogue of EC50 values

{"columns": ["COMPOUND STRING", "EC50"],
 "data": [
  ["COc1ccc(-c2cc(C(F)(F)F)nc(S(=O)(=O)CCCC(=O)Nc3cccc(O)c3)n2)cc1OC", "11.3 µM (active)"],
  ["O=C(O)c1cccc(N/N=C(\\N=Nc2ccccc2)c2ccccc2)c1", "51.1 µM (active)"],
  ["Cc1nc2ccccc2c2c1C(=O)N(Cc1cccnc1)C2=O", "1.02 µM (active)"]
]}

---

Listed here: compounds with reported IC50 for Protein-tyrosine kinase 2-beta (Homo sapiens).
Calls of active or inactive are those of the source.
QUANTITY MEASURED: IC50

{"columns": ["COMPOUND", "QUANTITY MEASURED", "RESULT"],
 "data": [
  ["CCN1CCc2c(sc(N)c2C#N)C1", "IC50", "23.6 µM (not active)"],
  ["CCN(CC)C(=O)CSc1nc(N)c2c3c(sc2n1)CC(C)CC3 (centres undefined)", "IC50", "> 69.5 µM (not active)"],
  ["Cc1cc(OCC(=O)Nc2ccc(N3CCN(C(=O)c4ccco4)CC3)cc2)cc(C)c1Cl", "IC50", "5.96 µM (active)"],
  ["CN(C)CCN1CCc2ccccc21", "IC50", "6.46 µM (active)"]
]}

---

# TARGET OF ASSAY: Induced myeloid leukemia cell differentiation protein Mcl-1 (Homo sapiens)
# Sequence (Q07820 whole entry): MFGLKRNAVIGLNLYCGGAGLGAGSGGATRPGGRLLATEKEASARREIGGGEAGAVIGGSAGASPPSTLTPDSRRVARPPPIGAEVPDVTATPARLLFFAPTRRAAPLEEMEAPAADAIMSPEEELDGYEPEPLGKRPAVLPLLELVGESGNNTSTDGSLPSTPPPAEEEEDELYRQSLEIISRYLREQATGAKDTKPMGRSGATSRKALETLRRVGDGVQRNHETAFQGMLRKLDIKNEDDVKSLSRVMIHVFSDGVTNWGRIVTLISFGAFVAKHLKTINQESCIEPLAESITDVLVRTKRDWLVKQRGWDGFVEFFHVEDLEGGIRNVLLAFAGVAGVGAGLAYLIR
# Format: functional
The source made the active and inactive calls.

{"columns": ["COMPOUND", "IC50"],
 "data": [
  ["O=C(N/N=C/c1ccc(O)cc1)c1cccc(N/N=C/c2ccc(O)cc2)c1", "6060 nM (active)"],
  ["CN(C)c1ccc(/N=C2\\C(=O)N(C)c3cccc4c(O)c5ccccc5c2c34)cc1", "10600 nM (active)"],
  ["CCOC(=O)c1sc2nc3c(SCC(=O)O)cc(C(=O)c4cc(F)ccc4O)cn3c(=O)c2c1C", "2630 nM (active)"],
  ["O=C1/C(=C/C=C/c2ccco2)SC(=S)N1c1ccc(O)cc1", "1720 nM (active)"],
  ["CCOC(=O)c1ccc2c(c1)C1C=CCC1C(C(=O)O)N2 (stereo not given)", "997 nM (active)"]
]}

---

# TARGET OF ASSAY: Leucine aminopeptidase (Plasmodium falciparum 3D7, UniProt Q8IL11)
# Sequence (Q8IL11 whole entry): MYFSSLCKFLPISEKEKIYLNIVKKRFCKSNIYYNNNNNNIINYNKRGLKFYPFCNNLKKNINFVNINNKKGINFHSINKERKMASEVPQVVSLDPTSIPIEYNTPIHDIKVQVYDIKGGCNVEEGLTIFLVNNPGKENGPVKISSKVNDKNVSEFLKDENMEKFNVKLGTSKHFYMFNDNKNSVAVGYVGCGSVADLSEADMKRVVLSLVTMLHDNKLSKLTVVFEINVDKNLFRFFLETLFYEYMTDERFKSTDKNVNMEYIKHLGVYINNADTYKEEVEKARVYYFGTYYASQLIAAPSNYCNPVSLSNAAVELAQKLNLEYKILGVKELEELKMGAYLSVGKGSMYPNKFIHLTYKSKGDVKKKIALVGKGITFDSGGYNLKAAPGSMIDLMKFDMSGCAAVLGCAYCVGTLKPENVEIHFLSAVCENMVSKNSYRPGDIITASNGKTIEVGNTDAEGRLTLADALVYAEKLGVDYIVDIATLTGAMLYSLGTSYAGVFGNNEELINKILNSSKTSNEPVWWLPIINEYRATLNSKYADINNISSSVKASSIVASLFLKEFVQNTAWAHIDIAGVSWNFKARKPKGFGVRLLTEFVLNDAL
# TEST DESCRIPTION: P. falciparum M17LAP inhibitors, primary screen, biochemical, fluorogenic H-Leu-NHMec substrate, 1536-well (AID 1619)
# Format: functional
Active and inactive are the calls of the source.
Catalogue of IC50 values
QUANTITY MEASURED: IC50

{"columns": ["MOLECULE", "QUANTITY MEASURED", "RESULT"],
 "data": [
  ["Cc1ccc(-c2csc(NC(=O)C3CC=CCC3C(=O)O)c2C(=O)OC(C)C)cc1 (stereo unspecified)", "IC50", "9.13 µM (active)"],
  ["Cc1sc(NC(=O)C2CCCCC2C(=O)O)c(C(N)=O)c1-c1ccccc1 (stereo unspecified)", "IC50", "11 µM (active)"],
  ["O=C(CSc1nc2c(c(=O)[nH]1)CN(Cc1ccc(F)cc1)CC2)Nc1ccc(F)cc1", "IC50", "7.8 µM (active)"],
  ["COc1ccc(-c2nnc(S)[nH]2)cc1", "IC50", "39.5 µM (active)"],
  ["O=C(O)c1cccc(NC(=S)N/N=C/c2c[nH]c3ccccc23)c1", "IC50", "17.6 µM (active)"],
  ["Cc1c(O)ccc(-c2[nH]ncc2-c2nc3ccccc3s2)c1O", "IC50", "6.97 µM (active)"]
]}
